Answer each item with its documented Binding of mAb-2 to SRA Pre-complexed with mAb-1.
Biological target: T1, SRA.mmh
T1 construct: also called SRA.mmh (CHO)
T1 antigen: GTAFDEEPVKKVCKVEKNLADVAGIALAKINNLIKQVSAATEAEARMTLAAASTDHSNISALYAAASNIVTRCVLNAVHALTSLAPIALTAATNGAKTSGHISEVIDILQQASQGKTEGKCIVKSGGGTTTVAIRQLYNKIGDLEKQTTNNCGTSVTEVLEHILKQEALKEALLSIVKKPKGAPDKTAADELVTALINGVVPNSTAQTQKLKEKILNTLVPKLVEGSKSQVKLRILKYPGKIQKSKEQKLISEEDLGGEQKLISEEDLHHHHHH
Assay: Octet, mAb-2 at 50 ug/mL on captured SRA.mmh after negative control α-PRLR H1H6800P as mAb-1 (row 32 (-))
Response field accepts a number only; no unit should be typed.

Q: What value of Binding of mAb-2 to SRA Pre-complexed with mAb-1 has been recorded for this entry: H2aM10285N (antibody, V domains shown, Chimeric antibody, human variable domains and mouse constant domains (mouse Fc, prefix H2aM); also called H2M10285N) VH: QVQLVQSGAEVKKPGSSVKVSCKASGGTFTNFAISWVRQAPGLGLEWMGGIIPFVGTATYEQKFQGRVSITADESTRTAYMELSSLRYDDTAVYYCARWFSGSGGDFDYWGQGTLVTVSS VL: AIQMTQSPSSLSASVGDRVTITCRASQGIGNDLGWYQQRRGTAPKLLIYAASSLQSGVPSRFSGSGSGTDFTLTISSLQPEDFATYYCLQDFTFPRTFGQGTKVEIK
Result: 1.24

Q: Input H1H10067P (antibody, V domains shown, Fully human antibody with human IgG1 Fc (prefix H1H)) VH: QVQLQESGPGLVKPSQTLSLTCIVSGGSISSGDYYWNWIRQHPGKGLEWIGDIYHSGDTYYNPSLKSRVTISLDTSKNQFSLKLSSLTAADTAVYYCARDRIVATGGGMDVWGQGTTVTVSS VL: DIQMTQSPSTLSASVGDRVTITCRASQSISSWLAWYQRKPGKAPNLLIYRSSSLESGVPSRFSGSGSGTEFTLTISSLQADDFVIYYCQQYNSYPYTFGQGTKLEIK
Result: 1.41

Q: Next entry: H1H10026P (antibody, V domains shown, Fully human antibody with human IgG1 Fc (prefix H1H)) VH: QVQLVESGGGVVQPGRSLRLSCEASGFTFSIYGMHWVRQAPGKGLEWVAVISYDGTNRYYADSVKGRFTISRDNSKNTLYLQMNSLRAEDTAVYYCAKVNIWNFLFDYWGQGTLVTVSS VL: EIVLTQSPGTLSLSPGERATLSCRASQSVSGNYLAWYQQKPGQAPRLLIYGPSSRATGIPDRFSGSGSGTDFTLTISRLEPEDFAVYYCQQYGTSLTFGGGTKVEIK
Result: 1.64
